# Test system: 485176-168-R4-J1-PDC spheroids with HUVEC/MSC, viability
# testName: Anticancer human tumor 485176-168-R4-J1-PDC patient-derived pancreatic adenocarcinoma cell line growth inhibition [GQUAD]
# runParameters: second compound 0.1 µM; first compound 0.316 µM; active compounds read low
A collection of compounds and their measured viability, T/C
readoutLabel: viability, T/C (%)

{"compound": "CC[C@@]1(O)C(=O)OCc2c1cc1n(c2=O)Cc2cc3c(CN(C)C)c(O)ccc3nc2-1 + CN(C)c1ccc(Nc2c3ccc(NC(=O)CCN4CCCC4)cc3nc3cc(NC(=O)CCN4CCCC4)ccc23)cc1", "studyTarget": "485176-168-R4-J1-PDC spheroids with HUVEC/MSC, viability", "valueUnit": "%", "resultValue": 38.4}
{"compound": "CC(C)(O)C1CCC(Nc2ccc3ncc(-c4cccc(C(F)(F)F)c4)n3n2)CC1 (stereo unspecified) + Cc1cnc(CNC(=O)c2c(=O)c3ccc(N4CCCN(C)CC4)nc3n3c2sc2ccccc23)cn1", "studyTarget": "485176-168-R4-J1-PDC spheroids with HUVEC/MSC, viability", "valueUnit": "%", "resultValue": 57.6}
{"compound": "C=CC(=O)N1CCN(c2nc(=O)n(-c3c(C)ccnc3C(C)C)c3nc(-c4c(O)cccc4F)c(F)cc23)C(C)C1 (stereo unspecified) + Cc1[nH]c2ccc(F)cc2c1-c1nc2c3cccnc3c3ncccc3c2[nH]1", "studyTarget": "485176-168-R4-J1-PDC spheroids with HUVEC/MSC, viability", "valueUnit": "%", "resultValue": 116}
{"compound": "CCCS(=O)(=O)Nc1ccc(F)c(C(=O)c2c[nH]c3ncc(-c4ccc(Cl)cc4)cc23)c1F + Cc1[nH]c2ccc(F)cc2c1-c1nc2c3cccnc3c3ncccc3c2[nH]1", "studyTarget": "485176-168-R4-J1-PDC spheroids with HUVEC/MSC, viability", "valueUnit": "%", "resultValue": 87.8}
{"compound": "C#Cc1c(F)ccc2cc(O)cc(-c3ncc4c(N5CC6CCC(C5)N6)nc(OCC56CCCN5CC(F)C6)nc4c3F)c12 (stereo unspecified) + Cc1[nH]c2ccc(F)cc2c1-c1nc2c3cccnc3c3ncccc3c2[nH]1", "studyTarget": "485176-168-R4-J1-PDC spheroids with HUVEC/MSC, viability", "valueUnit": "%", "resultValue": 101}
{"compound": "CC1COCCN1c1cc(-c2ccnn2C)c2ccnc(-c3ccn[nH]3)c2n1 (stereo unspecified) + Cc1[nH]c2ccc(F)cc2c1-c1nc2c3cccnc3c3ncccc3c2[nH]1", "studyTarget": "485176-168-R4-J1-PDC spheroids with HUVEC/MSC, viability", "valueUnit": "%", "resultValue": 16.8}
{"compound": "COc1cc(C2c3cc4c(cc3C(OC3OC5COC(C)OC5C(O)C3O)C3COC(=O)C23)OCO4)cc(OC)c1O (stereo unspecified) + CN(C)c1ccc(Nc2c3ccc(NC(=O)CCN4CCCC4)cc3nc3cc(NC(=O)CCN4CCCC4)ccc23)cc1", "studyTarget": "485176-168-R4-J1-PDC spheroids with HUVEC/MSC, viability", "valueUnit": "%", "resultValue": 46.4}
{"compound": "Cc1[nH]c2ccccc2c1CCNCc1ccc(/C=C/C(=O)NO)cc1 + Cc1[nH]c2ccc(F)cc2c1-c1nc2c3cccnc3c3ncccc3c2[nH]1", "studyTarget": "485176-168-R4-J1-PDC spheroids with HUVEC/MSC, viability", "valueUnit": "%", "resultValue": 15.7}
{"compound": "Cc1[nH]c2ccccc2c1CCNCc1ccc(/C=C/C(=O)NO)cc1 + Cc1cnc(CNC(=O)c2c(=O)c3ccc(N4CCCN(C)CC4)nc3n3c2sc2ccccc23)cn1", "studyTarget": "485176-168-R4-J1-PDC spheroids with HUVEC/MSC, viability", "valueUnit": "%", "resultValue": 9.46}
{"compound": "O=c1[nH]cc(F)c(=O)[nH]1 + Cc1cnc(CNC(=O)c2c(=O)c3ccc(N4CCCN(C)CC4)nc3n3c2sc2ccccc23)cn1", "studyTarget": "485176-168-R4-J1-PDC spheroids with HUVEC/MSC, viability", "valueUnit": "%", "resultValue": 47.2}
{"compound": "CC1COCCN1c1cc(C2(O)CC3CCC(C2)O3)c2cnn(-c3ccn[nH]3)c2n1 (stereo unspecified) + CN(C)c1ccc(Nc2c3ccc(NC(=O)CCN4CCCC4)cc3nc3cc(NC(=O)CCN4CCCC4)ccc23)cc1", "studyTarget": "485176-168-R4-J1-PDC spheroids with HUVEC/MSC, viability", "valueUnit": "%", "resultValue": 16.4}

* * *

# System: 485176-168-R4-J1-PDC spheroids with HUVEC/MSC, viability
# testName: Anticancer human tumor 485176-168-R4-J1-PDC cell line growth inhibition [GQUAD];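 note: spheroids exposed to compounds for seven days before readout; percent viability relative to DMSO vehicle control wells as 100%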
# runParameters: second compound 3.16 µM; first compound 1 µM; active compounds read low

{"compound": "CC1COCCN1c1cc(-c2ccnn2C)c2ccnc(-c3ccn[nH]3)c2n1 (stereo not drawn) + Cc1[nH]c2ccc(F)cc2c1-c1nc2c3cccnc3c3ncccc3c2[nH]1", "viability, T/C / %": 9.36}
{"compound": "O=c1[nH]cc(F)c(=O)[nH]1 + Cc1[nH]c2ccc(F)cc2c1-c1nc2c3cccnc3c3ncccc3c2[nH]1", "viability, T/C / %": 65.1}
{"compound": "C=CC(=O)N1CCN(c2nc(=O)n(-c3c(C)ccnc3C(C)C)c3nc(-c4c(O)cccc4F)c(F)cc23)C(C)C1 (stereo not drawn) + Cc1[nH]c2ccc(F)cc2c1-c1nc2c3cccnc3c3ncccc3c2[nH]1", "viability, T/C / %": 83.6}

* * *

# Test system: 485176-168-R4-J1-PDC spheroids with HUVEC/MSC, viability
# testName: Anticancer human tumor 485176-168-R4-J1-PDC cell line growth inhibition [GQUAD];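 note: spheroids exposed to compounds for seven days before readout; percent viability relative to DMSO vehicle control wells as 100%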
# runParameters: second compound 10 µM; first compound 3.16 µM; active compounds read low
# Source text: DNA G-quadruplex Stabilizer Agents in Combinations in Complex Spheroids A high-throughput screen of multi-cell type tumor spheroids was designed to identify active combinations of DNA G-quadruplex stabilizer agents and targeted small molecules. […] Compounds. […] If the clinical Cmax for an agent had not been determined, the highest concentration tested was 10 microM. […]
Hi! Could you tag entries with viability, T/C below 20% as true, and those at or above as false? Much appreciated.

{"compound": "COc1cc(C2c3cc4c(cc3C(OC3OC5COC(C)OC5C(O)C3O)C3COC(=O)C23)OCO4)cc(OC)c1O (stereo not given) + Cc1[nH]c2ccc(F)cc2c1-c1nc2c3cccnc3c3ncccc3c2[nH]1", "className": "false"}
{"compound": "COc1cccc2c1C(=O)c1c(O)c3c(c(O)c1C2=O)CC(O)(C(=O)CO)CC3OC1CC(N)C(O)C(C)O1 (stereo not given) + Cc1[nH]c2ccc(F)cc2c1-c1nc2c3cccnc3c3ncccc3c2[nH]1", "className": "true"}
{"compound": "CC1COCCN1c1cc(C2(O)CC3CCC(C2)O3)c2cnn(-c3ccn[nH]3)c2n1 (stereo not given) + Cc1cnc(CNC(=O)c2c(=O)c3ccc(N4CCCN(C)CC4)nc3n3c2sc2ccccc23)cn1", "className": "true"}
{"compound": "O=c1[nH]cc(F)c(=O)[nH]1 + Cc1cnc(CNC(=O)c2c(=O)c3ccc(N4CCCN(C)CC4)nc3n3c2sc2ccccc23)cn1", "className": "false"}
{"compound": "CC(C)(O)C1CCC(Nc2ccc3ncc(-c4cccc(C(F)(F)F)c4)n3n2)CC1 (stereo not given) + CN(C)c1ccc(Nc2c3ccc(NC(=O)CCN4CCCC4)cc3nc3cc(NC(=O)CCN4CCCC4)ccc23)cc1", "className": "false"}

* * *

# Tested on: 485176-168-R4-J1-PDC spheroids with HUVEC/MSC, viability
# testName: Anticancer human tumor 485176-168-R4-J1-PDC cell line growth inhibition [GQUAD]; active means viability on the fitted dose curve at most 10% of control; inactive means the rest;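 note: spheroids exposed to compounds for seven days before readout; percent viability relative to DMSO vehicle control wells as 100%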
# runParameters: second compound 10 µM; first compound 3.16 µM
Outcomes: Yes for active, No for inactive

{"molecule": "CC(=O)O[C@H]1C(=O)[C@@]2(C)[C@H]([C@H](OC(=O)c3ccccc3)[C@]3(O)C[C@H](OC(=O)[C@H](O)[C@@H](NC(=O)c4ccccc4)c4ccccc4)C(C)=C1C3(C)C)[C@]1(OC(C)=O)CO[C@@H]1C[C@@H]2O + CN(C)c1ccc(Nc2c3ccc(NC(=O)CCN4CCCC4)cc3nc3cc(NC(=O)CCN4CCCC4)ccc23)cc1", "className": "No"}
{"molecule": "O=C(NO)c1cnc(N2CCN(S(=O)(=O)c3ccc4ccccc4c3)CC2)nc1 + Cc1[nH]c2ccc(F)cc2c1-c1nc2c3cccnc3c3ncccc3c2[nH]1", "className": "Yes"}
{"molecule": "CC(C)n1c(=O)n(C)c2cnc3cc(F)c(-c4ccc(OCCCN5CCCCC5)nc4)cc3c21 + Cc1cnc(CNC(=O)c2c(=O)c3ccc(N4CCCN(C)CC4)nc3n3c2sc2ccccc23)cn1", "className": "No"}
